# experiment: osmotic lysis modulators in infected erythrocytes, primary screen, PSAC antagonist project, cell-based, P. falciparum Indochina, OD700, 3 h (AID 1156)
# assay conditions: higher = more signal, called active from +8 up or from −8 down
Lab note: anything with z-score at or over 0.4 counts as 1 (yes); the rest go in 0 (no).

The following compounds have reported results that may help.
# compound, label value
records = [
    ("O=c1cccc(-c2ccco2)o1", "0 (no)"),
    ("[N-]=[N+]=NCc1ccccc1[C@H]1OC(c2ccc(OCCCO)cc2)=N[C@@]1(Cc1ccccc1)C(=O)NCCN1CCOCC1", "1 (yes)"),
    ("C=CCNC(=O)[C@@H]1[C@H]2C(=O)O[C@H](c3ccccc3)[C@H](c3ccccc3)N2[C@H](c2ccc(OCCO)cc2)[C@@]12C(=O)N(C(=O)OCCOC)c1ccc(C#CCCO)cc12", "0 (no)"),
]

Evaluate CCN(CC)c1ccc(N2CC=CC34O[C@@H]5/C=C\CCC(C)OC(=O)C5[C@H]3C(=O)N(C(C)CO)[C@@H]4C2=O)cc1 (stereo not given in full) : z-score at minimum 0.4?
1 (yes)

# check: z-score of "COc1ccc(CCNC(=O)[C@@]2(Cc3ccccc3I)c3ccccc3C(=O)N(Cc3ccccc3Cl)[C@H]2c2ccc(CO)cc2)cc1" is greater than or equal to 0.4
1 (yes)

Hi, just wondering whether CC(C)CCC[C@@H](C)[C@H]1CC[C@@]2(C)C3=C(CC[C@]12C)[C@@]1(C)CC[C@H](OC(=O)c2ccccc2)C(C)(C)C1CC3 (stereo not given in full) shows z-score of 0.4 or higher.
0 (no)

Given "Cc1ccc(F)cc1S(=O)(=O)N[C@@H]1CCN(Cc2cccc3[nH]ccc23)C1" , state whether its z-score is at least 0.4.
0 (no)

Item "COCCOC(=O)N1C(=O)[C@@]2(c3cc(C#CCNC(N)=O)ccc31)[C@H](c1ccc(O)cc1)N1[C@H](c3ccccc3)[C@H](c3ccccc3)OC(=O)[C@H]1[C@@H]2C(N)=O" with z-score of 0.4 or above?
0 (no)

Threshold query (z-score >= 0.4) on "COCCOC(=O)N1C(=O)[C@@]2(c3cc(C#CC4(O)CCCCCC4)ccc31)[C@H](C(=O)N1CCN(c3ncccn3)CC1)[C@H]1C(=O)O[C@H](c3ccccc3)[C@H](c3ccccc3)N1[C@@H]2c1ccccc1OCCO"
1 (yes)

Hello, I need to know if "[N-]=[N+]=NC[C@H](Cc1ccccc1)NC(=O)c1ccccc1" has measured z-score not below 0.4. Thanks!
0 (no)

Quick check: does COc1cc(NN2C(C(O)c3ccccc3)C=CC3C(=O)N(C)C(=O)C32)cc(OC)c1OC (stereo not given) have z-score greater than or equal to 0.4?
1 (yes)

# check: z-score of "C=C(COC)C(=O)CC[C@H](OC(C)=O)c1ccc(OCCO)cc1" is greater than or equal to 0.4
1 (yes)

In plain terms: is recorded z-score at least 0.4 for "O=C(NCCN1CCOCC1)[C@@H]1c2ccccc2C(=O)N(Cc2ccccc2)[C@H]1c1ccc(CO)cc1" ?
1 (yes)

Check if z-score >= 0.4 (inclusive). Item: "COc1ccc([Si](C)(C)[C@H]2[C@H](CCO)O[C@@]3(C(=O)N(Cc4ccccc4)c4ccc(N5C(=O)c6ccccc6Oc6ccccc65)cc43)[C@@H]2C)cc1"
0 (no)

Assess whether reported z-score for "O=C(N1CCOCC1)[C@@]1(CCS(=O)(=O)c2ccccc2)N=C(c2ccc(OCCCO)cc2)O[C@H]1c1ccccc1" sits at 0.4 or higher.
0 (no)
